# Target: ALK5 (aa162-503) (Homo sapiens (Human), UniProt P36897)
# Sequence (P36897 162-503): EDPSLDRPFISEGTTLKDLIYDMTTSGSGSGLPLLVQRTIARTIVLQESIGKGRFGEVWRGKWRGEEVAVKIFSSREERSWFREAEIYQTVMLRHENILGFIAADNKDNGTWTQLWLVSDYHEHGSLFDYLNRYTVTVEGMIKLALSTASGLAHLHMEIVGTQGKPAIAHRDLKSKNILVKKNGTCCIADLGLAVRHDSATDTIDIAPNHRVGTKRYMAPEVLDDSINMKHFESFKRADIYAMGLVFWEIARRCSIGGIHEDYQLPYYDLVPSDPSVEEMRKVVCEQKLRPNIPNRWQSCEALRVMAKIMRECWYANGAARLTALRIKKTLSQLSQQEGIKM
Kindly state IC50 for each of the entries shown.
Answers are plain numbers, in µM.

1) CCCN1C(=O)Cc2cc(-c3cncc(-c4ccc(=O)n(C(C)C)c4)c3)ccc21: 1.5
2) COCCCN1C(=O)Cc2cc(-c3cncc(-c4ccc(=O)n(C(C)C)c4)c3)ccc21: 6

Please state IC50 for every compound in the list that follows.
1. CC(C)n1cc(-c2cncc(-c3ccc4c(c3)CC(=O)N4C)c2)ccc1=O
2. CC(C)CN1C(=O)Cc2cc(-c3cncc(-c4ccc(=O)n(C(C)C)c4)c3)ccc21
3. CC(C)n1cc(-c2cncc(-c3cc4c(cc3F)N(C)C(=O)C4)c2)ccc1=O

a:
2.6
1.9
5.3

---

# Target: wild-type ALK2 (aa172-499) (Homo sapiens (Human), UniProt Q04771)
# Sequence (Q04771 172-499): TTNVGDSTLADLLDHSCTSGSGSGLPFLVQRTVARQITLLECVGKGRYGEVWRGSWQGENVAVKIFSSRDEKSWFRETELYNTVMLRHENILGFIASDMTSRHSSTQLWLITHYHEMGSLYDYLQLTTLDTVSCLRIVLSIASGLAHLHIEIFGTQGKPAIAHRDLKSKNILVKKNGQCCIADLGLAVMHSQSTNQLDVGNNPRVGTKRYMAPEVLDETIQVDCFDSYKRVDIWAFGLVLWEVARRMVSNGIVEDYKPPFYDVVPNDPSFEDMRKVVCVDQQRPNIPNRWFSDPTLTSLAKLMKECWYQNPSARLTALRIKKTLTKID
# Test protocol: Caliper biochemical peptide phosphorylation assay, ALK2
# Particulars: Caliper peptide phosphorylation, 15 uM ATP; read-out: ALK2 IC50
// returns N unless IC50 is strictly below 200 nM, in which case Y

1) CCC(CC)Cn1cc(-c2cncc(-c3ccc4c(c3)CC(=O)N4C)c2)ccc1=O [Example 13]: N
2) CC(C)n1cc(-c2cc(-c3ccc4c(c3)CC(=O)N4C)cnc2N)ccc1=O [Example 42]: Y
3) Cc1cc(-c2cncc(-c3ccc4c(c3)CC(=O)N4C)c2)cn(C(C)C)c1=O [Example 3]: Y
4) CCC1C(=O)N(C)c2ccc(-c3cncc(-c4ccc(=O)n(C(C)C)c4)c3)cc21 (centres unmarked) [Example 22]: N
5) CC1C(=O)Nc2cc(-c3cncc(-c4ccc(=O)n(C(C)C)c4)c3)ccc21 (centres unmarked) [Example 33]: Y
6) CC(C)n1cc(-c2nc(-c3ccc4c(c3)CC(=O)N4C)cnc2N)ccc1=O [Example 43]: Y

q: In plain terms, does CC(C)n1cc(-c2cncc(-c3ccc4c(c3)CC(=O)N4C)c2)ccc1=O [Example 1] come in under 200 nM for IC50?
a: Y

q: Consider the compound CC(C)n1cc(-c2cncc(-c3ccc4c(c3)CC(=O)N4CC3CCC3)c2)ccc1=O [Example 38] . Is its IC50 strictly less than 200 nM?
a: Y

q: Lab note: IC50 threshold 200 nM. Does this compound come in strictly under it? CC(C)n1cc(-c2cncc(-c3ccc4c(c3)CC(=O)N4CCCO)c2)ccc1=O [Example 47]
a: Y

q: For this compound, is IC50 lower than 200 nM? CC(C)n1cc(-c2cncc(-c3ccc4c(c3)CC(=O)N4C)n2)ccc1=O [Example 46]
a: Y

q: Does COCCN1C(=O)Cc2cc(-c3cncc(-c4ccc(=O)n(C(C)C)c4)c3)ccc21 [Example 29] have IC50 strictly under 200 nM?
a: Y

q: # check: IC50 < 200 nM for CN1C(=O)Cc2cc(-c3cncc(-c4ccc(=O)n(C5CCC5)c4)c3)ccc21 [Example 6]
a: Y

q: Consider the compound CCN1C(=O)Cc2cc(-c3cncc(-c4ccc(=O)n(C(C)C)c4)c3)ccc21 [Example 20] . Is its IC50 strictly less than 200 nM?
a: Y

q: Regarding CN1C(=O)Cc2cc(-c3cncc(-c4ccc(=O)n(C5CCCCO5)c4)c3)ccc21 (centres unmarked) [Example 18] , kindly confirm whether its IC50 is beneath 200 nM.
a: N

---

# Target: ALK2 FOP mutant (aa172-499 R206H) (Homo sapiens (Human), UniProt Q04771, R206H)
# Sequence (Q04771 172-499 R206H): as the sequence (Q04771 172-499) above, with R35H counted along it
# Test protocol: Caliper biochemical peptide phosphorylation assay, ALK2 FOP
# Particulars: Caliper peptide phosphorylation, R206H, 15 uM ATP; read-out: ALK2 FOP EPK IC50
Property name: IC50 (nM)
Give bare numbers, in nM.

Sample records with IC50:
1. CC(C)n1cc(-c2cncc(-c3ccc4c(c3)N(C)C(=O)C4)c2)ccc1=O [Example 26]: 590
2. CC(C)CCn1cc(-c2cncc(-c3ccc4c(c3)CC(=O)N4C)c2)ccc1=O [Example 17]: 910
3. COCCN1C(=O)Cc2cc(-c3cncc(-c4ccc(=O)n(C(C)C)c4)c3)cnc21 [Example 27]: 1200

Items follow; give IC50 for each.
1. CC(C)n1cc(-c2cncc(-c3ccc4c(c3)CC(=O)N4CCO)c2)ccc1=O [Example 45]
2. CC(C)n1cc(-c2cncc(-c3cnc4c(c3)CC(=O)N4)c2)ccc1=O [Example 41]

a:
1. 100
2. 710

---

# Target: wild-type ALK2 (aa172-499) (Homo sapiens (Human))
# Test protocol: ADPGlo biochemical autophosphorylation assay, ALK2
# Particulars: 15 uM ATP
For each record, write down the corresponding log10 IC50.
log10 IC50, nM

Below are worked cases with known answers.
1. CC(C)CCn1cc(-c2cncc(-c3ccc4c(c3)CC(=O)N4C)c2)ccc1=O: 3.04
2. CC(C)n1cc(-c2cncc(-c3cc(F)c4c(c3)CC(=O)N4C)c2)ccc1=O: 2.54
3. CCC(CC)CN1C(=O)Cc2cc(-c3cncc(-c4ccc(=O)n(C(C)C)c4)c3)ccc21: 1.97

Go through the list and state log10 IC50 for each entry.
1. CC(C)n1cc(-c2cncc(-c3ccc4c(c3)CS(=O)(=O)N4C)c2)ccc1=O
2. CCC(CC)Cn1cc(-c2cncc(-c3ccc4c(c3)CC(=O)N4C)c2)ccc1=O
3. CC(C)n1cc(-c2cncc(-c3ccc4c(c3)CS(=O)(=O)N4CC3CCC3)c2)ccc1=O
4. CC(C)n1cc(-c2cncc(-c3ccc4c(c3)C(F)(F)C(=O)N4C)c2)ccc1=O
5. COCn1cc(-c2cncc(-c3ccc4c(c3)CC(=O)N4C)c2)ccc1=O

a:
[1.85, 2.83, 2.20, 3.08, 2.94]

---

Can you tell me pIC50 for the items I'm about to list?
# Target: ALK3 (aa198-525) (Homo sapiens (Human))
# Sequence (P36894 198-525): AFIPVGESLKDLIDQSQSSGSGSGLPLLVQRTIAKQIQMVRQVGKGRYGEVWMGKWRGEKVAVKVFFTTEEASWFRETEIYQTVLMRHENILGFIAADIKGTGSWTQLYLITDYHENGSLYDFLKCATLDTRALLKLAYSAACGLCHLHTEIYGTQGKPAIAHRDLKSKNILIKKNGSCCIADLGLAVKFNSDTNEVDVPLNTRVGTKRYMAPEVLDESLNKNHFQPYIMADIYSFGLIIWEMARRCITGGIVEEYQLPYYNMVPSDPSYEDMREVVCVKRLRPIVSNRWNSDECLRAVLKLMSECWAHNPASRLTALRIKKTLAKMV
Numbers only, as −log10 of the molar value.

Check out these entries, answers already filled in.
1) CC(C)N1C(=O)Cc2cc(-c3cncc(-c4ccc(=O)n(C(C)C)c4)c3)ccc21 [Example 21]: 6.24
2) CN1C(=O)Cc2cc(-c3cncc(-c4ccc(=O)n(C5CCC5)c4)c3)ccc21 [Example 6]: 5.44
3) CN1C(=O)Cc2cc(-c3cncc(-c4ccc(=O)n(C)c4)c3)ccc21 [Example 19]: 5.27
4) CC(C)n1cc(-c2cc(-c3ccc4c(c3)CC(=O)N4C)cnc2N)ccc1=O [Example 42]: 5.47
5) CC(C)n1cc(-c2cncc(-c3cnc4c(c3)CCC(=O)N4C)c2)ccc1=O [Example 37]: 5.60
6) CC(C)n1cc(-c2cncc(-c3ccc4c(c3)CC(=O)N4CCO)c2)ccc1=O [Example 45]: 5.96

Parameters: items (list). Returns: pIC50 for each item.
1. CC(C)n1cc(-c2cncc(-c3ccc4c(c3)CC(=O)N4CCCO)c2)ccc1=O [Example 47]
2. CC(C)n1cc(-c2cncc(-c3cc(F)c4c(c3)CC(=O)N4C)c2)ccc1=O [Example 36]

a:
1. 5.95
2. 5.62

Please go through the list and note pIC50 for each compound.
1. COCn1cc(-c2cncc(-c3ccc4c(c3)CC(=O)N4C)c2)ccc1=O [Example 15]
2. CC(C)n1cc(-c2nc(-c3ccc4c(c3)CC(=O)N4C)cnc2N)ccc1=O [Example 43]

a:
1. 5.00
2. 6.22

---

# Target: ALK1 (aa166-493) (Homo sapiens (Human))
# Sequence (P37023 166-493): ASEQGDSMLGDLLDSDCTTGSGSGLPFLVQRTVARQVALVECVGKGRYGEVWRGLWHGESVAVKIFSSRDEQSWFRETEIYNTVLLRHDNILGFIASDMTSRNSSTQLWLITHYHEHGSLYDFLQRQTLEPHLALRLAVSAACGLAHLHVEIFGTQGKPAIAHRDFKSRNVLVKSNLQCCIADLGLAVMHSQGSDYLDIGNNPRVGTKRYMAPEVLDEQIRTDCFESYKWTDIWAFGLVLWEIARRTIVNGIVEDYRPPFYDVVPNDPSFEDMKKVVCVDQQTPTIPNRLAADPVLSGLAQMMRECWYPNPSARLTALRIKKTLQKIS
# Test protocol: Caliper biochemical peptide phosphorylation assay, ALK1
# Particulars: 15 uM ATP
pIC50: −log10 of the molar value.
Outcome: Yes for pIC50 of at least 6; No for anything lower.

1. CC(C)n1cc(-c2cncc(-c3ccc4c(c3)CC(=O)N4CC3CCC3)c2)ccc1=O [Example 38]: Yes
2. CN1C(=O)Cc2cc(-c3cncc(-c4ccc(=O)n(C)c4)c3)ccc21 [Example 19]: No
3. CC(C)n1cc(-c2cncc(-c3ccc4c(c3)CC(=O)N4C)n2)ccc1=O [Example 46]: Yes
4. CN1C(=O)Cc2cc(-c3cncc(-c4ccc(=O)n(C5CCC5)c4)c3)ccc21 [Example 6]: No

q: Please indicate if the recorded pIC50 for CCN1c2ccc(-c3cncc(-c4ccc(=O)n(C(C)C)c4)c3)cc2CS1(=O)=O [Example 49] meets or exceeds 6.
a: Yes

q: # bool: pIC50 of CC(C)n1cc(-c2cncc(-c3ccc4c(c3)NC(=O)C4(C)C)c2)ccc1=O [Example 32] >= 6
a: Yes

q: Decide: pIC50 of CC(C)n1cc(-c2cncc(-c3ccc4c(c3)CCCC(=O)N4C)c2)ccc1=O [Example 39] >= 6?
a: Yes

q: Answer whether pIC50 of CN1C(=O)Cc2cc(-c3cncc(-c4ccc(=O)n(C5CC5)c4)c3)ccc21 [Example 10] is greater than or equal to 6.
a: No

q: Does pIC50 meet or surpass 6 for CCC1C(=O)N(C)c2ccc(-c3cncc(-c4ccc(=O)n(C(C)C)c4)c3)cc21 (stereo not drawn) [Example 22] ?
a: No

q: Does the reported pIC50 for CN1C(=O)Cc2cc(-c3cncc(-c4ccc(=O)n(CC5CCC5)c4)c3)ccc21 [Example 11] fall at or above the 6 mark?
a: No

q: Hello, I need to know if CN1C(=O)Cc2cc(-c3cncc(-c4ccc(=O)n(C5CCCCO5)c4)c3)ccc21 (stereo not drawn) [Example 18] has measured pIC50 not below 6. Thanks!
a: No
